- METHOD_DESCRIPTION: in vivo
- MEASUREMENT_CONTEXT: mouse, intracerebral, fixed volumes of various concentrations, seven day observation, meglumine salt, read-out: LD50 of Meglumine Salt, Intracerebral (Mice)

{"columns": ["ITEM_SMILES", "LD50 at 168 h / mg/kg"],
 "data": [
  ["CNC(=O)c1c(I)c(NC(=O)COC)c(I)c(C(=O)O)c1I", 700]
]}
